tested on: 485176-168-R4-J1-PDC complex spheroid growth; assay: Anticancer human tumor 485176-168-R4-J1-PDC patient-derived pancreatic adenocarcinoma cell line growth inhibition [RAS]; conditions: second compound 0.03 µM; first compound 1 µM; stronger effect = lower value;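 note: spheroids exposed to compounds for seven days before readout; luminescence viability expressed relative to DMSO vehicle wells set as 100%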
outcome_measure: viability, T/C (%)
Field format: number, assumed %, no unit text.

Here's what some known entries look like.
{"compound": "CC(C)NCC(C(=O)N1CCN(c2ncnc3c2C(C)CC3O)CC1)c1ccc(Cl)cc1 (stereo not given) + CCn1c(-c2cc(N3CCN(C)CC3)cnc2C(C)OC)c2c3cc(ccc31)-c1csc(n1)CC(NC(=O)C1CC1C)C(=O)N1CCCC(N1)C(=O)OCC(C)(C)C2", "experimental_target": "485176-168-R4-J1-PDC complex spheroid growth", "viability, T/C / %": 44.4}
{"compound": "C[C@@H](NC(=O)c1ncnc(N)c1Cl)c1ncc(C(=O)Nc2cc(C(F)(F)F)c(Cl)cn2)s1 + CCn1c(-c2cccnc2C(C)OC)c2c3cc(ccc31)N1CCOC(CC(NC(=O)C(C(C)C)N(C)C(=O)C3(F)CCN(C(=O)C#CC(C)(C)N(C)C)CC3)C(=O)N3CCCC(N3)C(=O)OCC(C)(C)C2)C1", "experimental_target": "485176-168-R4-J1-PDC complex spheroid growth", "viability, T/C / %": 78.3}
{"compound": "CCC(CC)c1cc(NC2CCC(N)C2)n2nccc2n1 (stereo not given) + CCn1c(-c2cc(N3CCN(C)CC3)cnc2C(C)OC)c2c3cc(ccc31)-c1csc(n1)CC(NC(=O)C1CC1C)C(=O)N1CCCC(N1)C(=O)OCC(C)(C)C2", "experimental_target": "485176-168-R4-J1-PDC complex spheroid growth", "viability, T/C / %": 47.6}

The reported 485176-168-R4-J1-PDC complex spheroid growth viability, T/C of Cc1nc(N2CCC3(CC2)COC(C)C3N)c(CO)nc1Sc1ccnc(N)c1Cl (stereo not given) + CCn1c(-c2cccnc2C(C)OC)c2c3cc(ccc31)N1CCOC(CC(NC(=O)C(C(C)C)N(C)C(=O)C3(F)CCN(C(=O)C#CC(C)(C)N(C)C)CC3)C(=O)N3CCCC(N3)C(=O)OCC(C)(C)C2)C1 is 69.2

The reported 485176-168-R4-J1-PDC complex spheroid growth viability, T/C of CC1(O)CCCC1n1c(=O)c(C(F)F)cc2cnc(NC3CCN(S(C)(=O)=O)CC3)nc21 (stereo not given) + CCn1c(-c2cc(N3CCN(C)CC3)cnc2C(C)OC)c2c3cc(ccc31)-c1csc(n1)CC(NC(=O)C1CC1C)C(=O)N1CCCC(N1)C(=O)OCC(C)(C)C2 is 56
